# Test system: Escherichia coli TOP10
# Method Notes: shrunken log2 fold change of peptide-encoding DNA abundance (4.5 h post-induction vs induction); higher = less antimicrobial activity (less host growth inhibition)
# Conditions Used: time post-induction: 4.5 h; library: site-saturation at positions 5, 18, 19, 20
# shrunken log2 fold change values compiled below
Hey, just send me the number, nothing else.

Please review the following examples before continuing.
- Sequence Input: "RRIRKRPPRLPRPRPRPRQNPRP"
  Study Target: "Escherichia coli TOP10"
  shrunken log2 fold change: 0.586
- Sequence Input: "RRIRRRPPRLPRPRPRPYILPRP"
  Study Target: "Escherichia coli TOP10"
  shrunken log2 fold change: 0.366
- Sequence Input: "RRIRGRPPRLPRPRPRPTVFPRP"
  Study Target: "Escherichia coli TOP10"
  shrunken log2 fold change: 0.993
- Sequence Input: "RRIRLRPPRLPRPRPRPQCIPRP"
  Study Target: "Escherichia coli TOP10"
  shrunken log2 fold change: -0.0123
- Sequence Input: "RRIRYRPPRLPRPRPRPFNCPRP"
  Study Target: "Escherichia coli TOP10"
  shrunken log2 fold change: -0.362
- Sequence Input: "RRIRPRPPRLPRPRPRPFIDPRP"
  Study Target: "Escherichia coli TOP10"
  shrunken log2 fold change: -0.304

# query: shrunken log2 fold change of entry "RRIRVRPPRLPRPRPRPQSNPRP"
-0.394

Thanks! And "RRIRTRPPRLPRPRPRPLTLPRP" ?
-0.241

Thanks! And "RRIRIRPPRLPRPRPRPRDNPRP" ?
-0.348

Thanks! And "RRIRARPPRLPRPRPRPGHSPRP" ?
-0.0933

Thanks! And "RRIRVRPPRLPRPRPRPQTLPRP" ?
-0.372

Thanks! And "RRIRCRPPRLPRPRPRPVAEPRP" ?
0.417

Thanks! And "RRIRLRPPRLPRPRPRPGTTPRP" ?
-0.221

Thanks! And "RRIRWRPPRLPRPRPRPLQPPRP" ?
0.54

###

# Test system: Escherichia coli TOP10
# Method Notes: shrunken log2 fold change of peptide-encoding DNA abundance (4.5 h post-induction vs induction); higher = less antimicrobial activity (less host growth inhibition)
# Conditions Used: time post-induction: 4.5 h; library: site-saturation at positions 5, 18, 19, 20
Param threshold (-0.02) applies to shrunken log2 fold change; output Fulfilled when value >= threshold, Not fulfilled when value < threshold.

Below are worked cases with known answers.
- Sequence Input: "RRIRPRPPRLPRPRPRPDIFPRP"
  Discrete Label: "Fulfilled"
- Sequence Input: "RRIRFRPPRLPRPRPRPCDHPRP"
  Discrete Label: "Not fulfilled"
- Sequence Input: "RRIRARPPRLPRPRPRPWARPRP"
  Discrete Label: "Fulfilled"
- Sequence Input: "RRIRLRPPRLPRPRPRPLTNPRP"
  Discrete Label: "Not fulfilled"
- Sequence Input: "RRIRPRPPRLPRPRPRPYRGPRP"
  Discrete Label: "Fulfilled"
- Sequence Input: "RRIRKRPPRLPRPRPRPWLSPRP"
  Discrete Label: "Fulfilled"
- Sequence Input: "RRIRYRPPRLPRPRPRPGIKPRP"
  Discrete Label: "Not fulfilled"
- Sequence Input: "RRIRCRPPRLPRPRPRPTSPPRP"
  Discrete Label: "Fulfilled"
- Sequence Input: "RRIRTRPPRLPRPRPRPFIMPRP"
  Discrete Label: "Not fulfilled"
- Sequence Input: "RRIRMRPPRLPRPRPRPDYMPRP"
  Discrete Label: "Fulfilled"

Hi, just wondering whether "RRIRRRPPRLPRPRPRPAFRPRP" shows shrunken log2 fold change of -0.02 or higher.
Fulfilled

Thanks! And "RRIRERPPRLPRPRPRPEFVPRP" ?
Fulfilled

Thanks! And "RRIRVRPPRLPRPRPRPWSGPRP" ?
Not fulfilled

Thanks! And "RRIRYRPPRLPRPRPRPPVMPRP" ?
Not fulfilled

Thanks! And "RRIRARPPRLPRPRPRPIFHPRP" ?
Fulfilled

###

# shrunken log2 fold change values compiled below
# Test system: Escherichia coli TOP10
# Method Notes: shrunken log2 fold change of peptide-encoding DNA abundance (4.5 h post-induction vs induction); higher = less antimicrobial activity (less host growth inhibition)
# Conditions Used: time post-induction: 4.5 h; library: site-saturation at positions 5, 18, 19, 20
Hey, just send me the number, nothing else.

Please review the following examples before continuing.
- Sequence Input: "RRIRWRPPRLPRPRPRPNMHPRP"
  Study Target: "Escherichia coli TOP10"
  Reported: -0.00977
- Sequence Input: "RRIRRRPPRLPRPRPRPSVPPRP"
  Study Target: "Escherichia coli TOP10"
  Reported: 0.063
- Sequence Input: "RRIRARPPRLPRPRPRPPPRPRP"
  Study Target: "Escherichia coli TOP10"
  Reported: 1.56
- Sequence Input: "RRIRDRPPRLPRPRPRPGKDPRP"
  Study Target: "Escherichia coli TOP10"
  Reported: -0.0503
- Sequence Input: "RRIRKRPPRLPRPRPRPLNDPRP"
  Study Target: "Escherichia coli TOP10"
  Reported: -0.0546

# query: shrunken log2 fold change of entry "RRIRQRPPRLPRPRPRPDTMPRP"
0.0515

Thanks! And "RRIRSRPPRLPRPRPRPNYDPRP" ?
-0.247

Thanks! And "RRIRRRPPRLPRPRPRPSRPPRP" ?
0.464

Thanks! And "RRIRYRPPRLPRPRPRPPIQPRP" ?
-0.589

Thanks! And "RRIRTRPPRLPRPRPRPCVTPRP" ?
-0.208

Thanks! And "RRIRARPPRLPRPRPRPFCVPRP" ?
0.19

Thanks! And "RRIRSRPPRLPRPRPRPVVMPRP" ?
0.0334

Thanks! And "RRIRCRPPRLPRPRPRPAITPRP" ?
-0.372

Thanks! And "RRIRHRPPRLPRPRPRPHVVPRP" ?
-0.0954

Thanks! And "RRIRARPPRLPRPRPRPDRNPRP" ?
-0.066

###

# System: Escherichia coli TOP10
# Method Notes: shrunken log2 fold change of peptide-encoding DNA abundance (4.5 h post-induction vs induction); higher = less antimicrobial activity (less host growth inhibition)
# Conditions Used: time post-induction: 4.5 h; library: site-saturation at positions 5, 18, 19, 20
Entries are sorted into classes by shrunken log2 fold change as follows: band 1: < -0.2; band 2: ≥ -0.2 and < 0.06; band 3: ≥ 0.06

- Sequence Input: "RRIRERPPRLPRPRPRPIPLPRP"
  Discrete Label: "band 1"
- Sequence Input: "RRIRTRPPRLPRPRPRPDKAPRP"
  Discrete Label: "band 2"
- Sequence Input: "RRIRFRPPRLPRPRPRPCITPRP"
  Discrete Label: "band 1"
- Sequence Input: "RRIRTRPPRLPRPRPRPIRRPRP"
  Discrete Label: "band 2"
- Sequence Input: "RRIRCRPPRLPRPRPRPRLKPRP"
  Discrete Label: "band 3"

Bin? "RRIRIRPPRLPRPRPRPSKNPRP"
band 1

Thanks! And "RRIRNRPPRLPRPRPRPDEIPRP" ?
band 2

Thanks! And "RRIRNRPPRLPRPRPRPRNIPRP" ?
band 2

Thanks! And "RRIRKRPPRLPRPRPRPGHGPRP" ?
band 3

Thanks! And "RRIRERPPRLPRPRPRPVHVPRP" ?
band 1

###

# Test system: Escherichia coli TOP10;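 also: peptides expressed intracellularly from a pBAD plasmid library in pooled LB shake-flask culture, induced with 0.3% L-arabinose, DNA abundance read by NGS, three biological replicates, DESeq2 with apeglm shrinkage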
# Method Notes: shrunken log2 fold change of peptide-encoding DNA abundance (4.5 h post-induction vs induction); higher = less antimicrobial activity (less host growth inhibition)
# Conditions Used: time post-induction: 4.5 h; library: site-saturation at positions 5, 18, 19, 20
Param threshold (-0.001) applies to shrunken log2 fold change; output Yes when value >= threshold, No when value < threshold.

- Sequence Input: "RRIRARPPRLPRPRPRPSLFPRP"
  Discrete Label: "Yes"
- Sequence Input: "RRIRVRPPRLPRPRPRPKNSPRP"
  Discrete Label: "No"
- Sequence Input: "RRIRERPPRLPRPRPRPKEDPRP"
  Discrete Label: "Yes"
- Sequence Input: "RRIRSRPPRLPRPRPRPRRCPRP"
  Discrete Label: "Yes"
- Sequence Input: "RRIRSRPPRLPRPRPRPTAYPRP"
  Discrete Label: "No"
- Sequence Input: "RRIRERPPRLPRPRPRPSPYPRP"
  Discrete Label: "No"
- Sequence Input: "RRIRFRPPRLPRPRPRPMWLPRP"
  Discrete Label: "Yes"
- Sequence Input: "RRIRARPPRLPRPRPRPQNRPRP"
  Discrete Label: "Yes"
- Sequence Input: "RRIRRRPPRLPRPRPRPCSDPRP"
  Discrete Label: "Yes"
- Sequence Input: "RRIRCRPPRLPRPRPRPFSQPRP"
  Discrete Label: "No"

Hi, just wondering whether "RRIRGRPPRLPRPRPRPIHPPRP" shows shrunken log2 fold change of -0.001 or higher.
Yes

Thanks! And "RRIRFRPPRLPRPRPRPRGCPRP" ?
Yes

Thanks! And "RRIRFRPPRLPRPRPRPVAHPRP" ?
No

Thanks! And "RRIRMRPPRLPRPRPRPYDFPRP" ?
No

Thanks! And "RRIRRRPPRLPRPRPRPKALPRP" ?
Yes
